test system: MCF7 breast; assay: NCI tumour cell line growth inhibition, 48 h; in the data active = GI50 below about 0.43 µM; inactive = the rest
Classes used: YES for active, NO for inactive

compound | qualitative-label
Cc1[nH]c(=O)[nH]c(=O)c1CO | NO
Nc1ccc(/C=N/Nc2ccnc3c(N)cccc23)c2cccnc12 | NO
C[C@@H]1C=C2C(=O)O[C@@H]3CC[C@H](C1)[C@]23O | NO
COC(=O)C1=C(C(=O)OC)C23C=C(C)C1C2=C(C)C1(CC1)[C@@](C)(O)C3=O (stereo not given in full) | YES
COc1ccc(-c2nc(-c3nc4ccc(OC)cc4[nH]3)cc3c2[nH]c2ccccc23)cc1 | NO

###

TGI values, listed per item
tested on: CCRF-CEM leukemia; test: NCI tumour cell line growth inhibition, 48 h
experimental-readout: TGI

molecule | data-value
CN(C)c1nc(NN)c2c(-c3ccccc3)c(-c3ccccc3)oc2n1 | > 100 µM
Cc1cc(Cl)ccc1N=C1NC(=O)C(CC(=O)Nc2ccc(Cl)cc2Cl)S1 (stereo unspecified) | > 100 µM
C1=Cc2nc1c(-c1ccncc1)c1ccc([n-]1)c(-c1ccncc1)c1nc(c(-c3ccncc3)c3ccc([n-]3)c2-c2ccncc2)C=C1.[Zn+2] | > 100 µM
COc1ccc(O)c(C=NCCCN=Cc2cc(OC)ccc2O)c1 | 83.5 µM
COc1cc(-c2cc(-c3nc4ccc(Cl)cc4[nH]3)[nH]n2)cc(OC)c1OC | 7.56 µM
N/N=C1/CCCc2nonc21 | > 100 µM
